Hey, just so you know, these numbers are from patent US20260000692A1.

molecular target: CDK12 (Homo sapiens); test: Biochemical assay for CDK12 (LANCE TR-FRET, IC50 determination); details: compound at 10 μM; 10 µM
TEST_READOUT: CDK12 % Inhibition @ 10 μM (%)

COMPOUND | MEAS_VALUE
CNC(=O)C(C)Oc1cc(NC(=O)Cc2ccc(C3CCCN(C#N)C3)nc2)ncc1Cl (single isomer, unassigned) [Compound 89] | 90
CNC(=O)C(C)Oc1cc(NC(=O)Cc2ccc(C3CCCN(C#N)C3)nc2)ncc1Cl (single isomer, unassigned) [Compound 91] | 95
COc1cc(NC(=O)Cc2ccc(-c3cc(O[C@H]4CCOC4)cc(C#N)n3)nc2)ncc1Cl | 87
CNC(=O)C(C)Oc1cc(NC(=O)Cc2ccc(C3CCCN(C#N)C3)nc2)ncc1Cl (single isomer, unassigned) [Compound 90] | 93
CNC(=O)C(C)Oc1cc(NC(=O)Cc2ccc(C3=CCCN(C#N)C3)nc2)ncc1Cl (single isomer, unassigned) | 98
COc1cc(NC(=O)Cc2ccc(C3CCCN(C#N)C3)nc2)ncc1Cl (single isomer, unassigned) | 87
N#CN1CCCC(c2ccc(CC(=O)Nc3cc(O[C@@H]4CCOC4)c(Cl)cn3)cn2)C1 (single isomer, unassigned) | 77
CNC(=O)C(C)Oc1cc(NC(=O)Cc2ccc(C3CCCN(C#N)C3)nc2)ncc1Cl (single isomer, unassigned) [Compound 88] | 79
N#CN1CCCC(c2ccc(CC(=O)Nc3cc(O[C@H]4CCOC4)c(Cl)cn3)cn2)C1 (single isomer, unassigned) | 96
COc1cc(NC(=O)Cc2ccc(C3=CCN(C#N)CC3C)nc2)ncc1Cl (single isomer, unassigned) | 92
COc1cc(NC(=O)Cc2ccc(C3=CCN(C#N)C(C)C3)nc2)ncc1Cl (single isomer, unassigned) [Compound 67] | 86
COc1cc(NC(=O)Cc2ccc(C3=CCN(C#N)C(C)C3)nc2)ncc1Cl (single isomer, unassigned) [Compound 68] | 87
CNC(=O)C(C)Oc1cc(NC(=O)Cc2ccc(C3CCCN(C#N)C3)nc2)ncc1Cl (single isomer, unassigned) [Compound 87] | 85
N#CN1CCC=C(c2ccc(CC(=O)Nc3cc(OC4CCCOC4)c(Cl)cn3)cn2)C1 (single isomer, unassigned) | 92

###

molecular target: CDK12 (Homo sapiens, UniProt Q9NYV4); assay: Biochemical assay for CDK12 (LANCE TR-FRET, IC50 determination); conditions: CDK12, IC50 class; read-out: IC50 μM (in range)
Sequence (Q9NYV4 whole entry): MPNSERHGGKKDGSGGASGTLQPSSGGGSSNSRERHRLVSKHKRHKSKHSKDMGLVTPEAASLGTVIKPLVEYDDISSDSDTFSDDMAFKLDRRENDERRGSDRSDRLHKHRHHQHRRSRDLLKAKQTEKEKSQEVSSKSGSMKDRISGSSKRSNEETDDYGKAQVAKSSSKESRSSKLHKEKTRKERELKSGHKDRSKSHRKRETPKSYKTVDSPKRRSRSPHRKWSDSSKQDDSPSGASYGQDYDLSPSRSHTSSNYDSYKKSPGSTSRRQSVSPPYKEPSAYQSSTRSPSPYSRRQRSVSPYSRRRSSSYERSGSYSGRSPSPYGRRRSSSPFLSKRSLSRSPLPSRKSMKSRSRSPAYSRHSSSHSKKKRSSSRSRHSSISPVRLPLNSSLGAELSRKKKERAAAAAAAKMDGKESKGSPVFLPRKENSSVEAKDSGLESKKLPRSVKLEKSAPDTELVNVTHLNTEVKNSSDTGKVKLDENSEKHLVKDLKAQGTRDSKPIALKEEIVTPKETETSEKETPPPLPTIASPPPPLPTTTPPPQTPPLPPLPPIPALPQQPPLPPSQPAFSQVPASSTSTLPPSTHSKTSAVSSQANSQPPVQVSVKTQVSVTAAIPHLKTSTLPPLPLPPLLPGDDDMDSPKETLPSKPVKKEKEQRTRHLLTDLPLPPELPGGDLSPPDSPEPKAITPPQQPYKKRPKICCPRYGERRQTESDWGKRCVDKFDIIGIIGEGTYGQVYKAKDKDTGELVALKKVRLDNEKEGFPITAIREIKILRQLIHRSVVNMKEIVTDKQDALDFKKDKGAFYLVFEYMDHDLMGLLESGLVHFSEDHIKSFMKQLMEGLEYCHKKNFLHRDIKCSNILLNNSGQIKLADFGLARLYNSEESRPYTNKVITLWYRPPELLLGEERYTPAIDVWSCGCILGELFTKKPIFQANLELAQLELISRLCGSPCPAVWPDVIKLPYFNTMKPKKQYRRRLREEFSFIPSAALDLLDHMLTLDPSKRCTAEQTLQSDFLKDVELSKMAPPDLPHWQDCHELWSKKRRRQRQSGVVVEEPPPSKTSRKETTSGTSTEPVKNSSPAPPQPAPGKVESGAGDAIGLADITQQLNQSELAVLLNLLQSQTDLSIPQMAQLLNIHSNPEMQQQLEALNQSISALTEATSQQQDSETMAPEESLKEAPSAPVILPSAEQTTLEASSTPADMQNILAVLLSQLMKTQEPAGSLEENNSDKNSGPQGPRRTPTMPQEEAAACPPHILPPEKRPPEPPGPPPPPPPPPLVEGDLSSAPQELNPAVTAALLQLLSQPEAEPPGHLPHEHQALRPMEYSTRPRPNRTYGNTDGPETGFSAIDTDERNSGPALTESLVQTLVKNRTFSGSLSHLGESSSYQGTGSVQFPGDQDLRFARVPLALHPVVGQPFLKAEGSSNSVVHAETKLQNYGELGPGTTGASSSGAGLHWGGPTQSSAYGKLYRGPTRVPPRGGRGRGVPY
Sequence (O75909 whole entry partner): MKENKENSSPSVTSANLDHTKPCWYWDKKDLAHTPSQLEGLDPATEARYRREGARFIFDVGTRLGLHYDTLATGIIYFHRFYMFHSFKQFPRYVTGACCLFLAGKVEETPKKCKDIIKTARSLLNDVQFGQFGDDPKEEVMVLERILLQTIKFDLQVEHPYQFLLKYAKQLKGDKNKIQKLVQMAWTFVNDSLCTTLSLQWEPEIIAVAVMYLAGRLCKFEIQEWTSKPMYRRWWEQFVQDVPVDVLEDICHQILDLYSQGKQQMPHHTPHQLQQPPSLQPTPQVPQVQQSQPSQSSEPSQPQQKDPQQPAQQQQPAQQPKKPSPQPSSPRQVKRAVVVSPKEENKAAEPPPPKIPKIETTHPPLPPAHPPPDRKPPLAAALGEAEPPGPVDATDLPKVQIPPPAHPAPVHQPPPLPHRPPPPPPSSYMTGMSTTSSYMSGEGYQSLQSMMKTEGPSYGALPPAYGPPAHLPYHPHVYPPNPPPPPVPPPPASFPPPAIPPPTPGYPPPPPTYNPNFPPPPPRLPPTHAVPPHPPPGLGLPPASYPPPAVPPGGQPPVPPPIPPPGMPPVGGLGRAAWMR
Recorded IC50 by entry

Previously resolved entries follow.
COMPOUND | MEAS_VALUE
COc1cc(NC(=O)C(C)c2ccc(C3=CCCN(C#N)C3)nc2)ncc1Cl (centres unmarked) [Compound 48] | < 0.01 µM
COc1cc(NC(=O)Cc2ccc(-c3cccc(C#N)n3)cc2)ncc1Cl | > 0.1 µM
CN1CCC(Oc2cc(NC(=O)Cc3ccc(C4=CCN(C#N)CC4)nc3)ncc2Cl)C1 (stereo in doubt) [Compound 29] | 0.01 to 0.1 µM
N#CN1CC=C(c2ccc(CC(=O)Nc3cc(OC4CC5(CNC5)C4)c(Cl)cn3)cn2)CC1 | 0.01 to 0.1 µM
COCC(C)Oc1cc(NC(=O)Cc2ccc(C3=CCN(C#N)CC3)nc2)ncc1Cl (centres unmarked) | < 0.01 µM

The record that follows has no IC50 shown yet.
Inquiry: So what's the measured IC50 for this one? COc1cc(NC(=O)Cc2ccc(-c3nc(C#N)ccc3C)nc2)ncc1Cl
Reply text: > 0.1 µM
